Provide the reported thermal shift delta Tm of each item.
Test system: LOC_OS01G63280-cb003
methodSummary: thermal shift delta Tm vs DMSO control; higher = stronger stabilization (binding);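 note: purified Escherichia coli-expressed rice kinase domain construct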
measurementContext: 12.5 µM; protein concentration 2 µM
Counter-ions that a name gives are not always drawn.
Give bare numbers, in °C.

// worked examples, thermal shift delta Tm included
compound | tgt | assayMetric | measuredResult
C[C@@H]1COC(Nc2ccc3ncnc(Nc4ccc(OCc5nccs5)c(Cl)c4)c3c2)=N1 | LOC_OS01G63280-cb003 | thermal shift delta Tm | 1.44
Cc1ccccc1-n1c(Cn2nc(-c3cccc(O)c3)c3c(N)ncnc32)nc2cccc(C)c2c1=O | LOC_OS01G63280-cb003 | thermal shift delta Tm | 0.18
Cc1c[nH]c2nc(Nc3ccc(N4CCN(C)CC4)c(F)c3)nc(-c3cccc(CC#N)c3)c12 | LOC_OS01G63280-cb003 | thermal shift delta Tm | 3.25
Cc1[nH]nc2ccc(-c3cncc(OC[C@@H](N)Cc4ccccc4)c3)cc12 | LOC_OS01G63280-cb003 | thermal shift delta Tm | 0.26
NC(=O)c1cnc2[nH]ccc2c1N[C@@H]1[C@@H]2CC3C[C@H]1C[C@@](O)(C3)C2 | LOC_OS01G63280-cb003 | thermal shift delta Tm | 3.87

Please give thermal shift delta Tm for each item listed below.
1. Cc1cccc(CC(=O)N2CCc3c2ccc(-c2cn(C)c4ncnc(N)c24)c3F)n1
2. C[C@@H]1COCCN1c1cc(C2([S@](C)(=N)=O)CC2)nc(-c2cc[nH]c3nccc2-3)n1
3. O=C(Nc1nccs1)C(c1cc(F)ccc1O)N1Cc2ccccc2C1=O (stereo not drawn)
4. CCS(=O)(=O)N1CC(CC#N)(n2cc(-c3ncnc4[nH]ccc34)cn2)C1
5. Cc1cc(Nc2ncnc3ccc(-c4ccc(CNCCS(C)(=O)=O)o4)cc23)ccc1Oc1ccn2ncnc2c1

Reply:
[5.6, -0.13, -0.09, 1.3, 1.08]

Please give thermal shift delta Tm for each item listed below.
1. C[C@H]1CNCCCN1S(=O)(=O)c1cccc2cncc(F)c12 [Ripasudil (K-115) hydrochloride dihydrate]
2. Cc1cc(Nc2cc(CN3CCOCC3)c3nc(C)c(Cc4ccc(Cl)cc4F)n3n2)n[nH]1
3. COc1cc2ccc(=O)oc2cc1O

Reply:
1: 0.79; 2: 0.12; 3: -0.04

Please give thermal shift delta Tm for each item listed below.
1. Nc1ncnc2n[nH]c(Nc3ccc(F)cc3)c12
2. Cc1c(C(=O)N2CCOc3ccc(-c4ccc(N)nc4)cc3C2)ccc(S(C)(=O)=O)c1F
3. c1nc2c(NC3CCCCC3)nc(Nc3ccc(N4CCOCC4)cc3)nc2[nH]1
4. CC(C)CC(=O)Nc1n[nH]c2c1CN(C(=O)C1CCN(C)CC1)C2(C)C

Reply:
1. 3.22
2. 0.62
3. 1.53
4. 0.65

Task item: What value of measured thermal shift delta Tm is listed for Cc1ccc(NC(=O)c2ccc(CN3CCN(C)CC3)cc2)cc1Nc1nccc(-c2cccnc2)n1 [Imatinib Mesylate (STI571)] ?
Reply: 0.06

* * *

Test system: LOC_OS02G45750-cb003
methodSummary: thermal shift delta Tm vs DMSO control; higher = stronger stabilization (binding)
measurementContext: 12.5 µM; protein concentration 2 µM
Structures can show the parent of a compound that is named as a salt.
Outcome label depends on thermal shift delta Tm relative to 1 °C: at/above gives y, below gives n.

Task item: Item Cc1cc(Nc2cc(N3CCN(C)CC3)nc(/C=C/c3ccccc3)n2)n[nH]1 [ENMD-2076 L-(+)-Tartaric acid] with thermal shift delta Tm of 1 °C or above?
Reply: y

Task item: Repeat for the following compound: CCN(CC)CCNC(=O)c1c(C)[nH]c(/C=C2\C(=O)Nc3ccc(-c4csc(-c5ccccc5)n4)cc32)c1C [Amcasertib (BBI503)]
Reply: n

Task item: Repeat for the following compound: CCCCCCCCc1ccc(CCC(N)(CO)CO)cc1 [Fingolimod (FTY720) HCl]
Reply: n

Task item: Repeat for the following compound: C=C(C)[C@@H]1CC[C@]2(C)CC[C@]3(C)[C@H](CC[C@@H]4[C@@]5(C)CC[C@H](O)C(C)(C)[C@@H]5CC[C@]43C)[C@@H]12 [Lupeol]
Reply: y

Task item: Repeat for the following compound: NC(=O)c1cnc2[nH]ccc2c1N[C@@H]1[C@@H]2CC3C[C@H]1C[C@@](O)(C3)C2
Reply: y

Task item: Repeat for the following compound: CCNC(=O)Nc1ccc(-c2nc(N3CCOC[C@@H]3C)c3c(n2)C(C)(C)S(=O)(=O)C3)cc1
Reply: n

Task item: Repeat for the following compound: CCOc1cc(N2CCC(O)CC2)ccc1Nc1ncc2c(n1)N(C)c1ccccc1C(=O)N2C
Reply: n

Task item: Repeat for the following compound: CC(C)CCN1c2nc(Nc3cc(F)c(O)c(F)c3)ncc2N(C)C(=O)C1C (stereo not drawn)
Reply: y

Hello, the source for this data is the supplement of paper PMC9694430, in case you need it.
